B1: LINE1-full (parent)
chain: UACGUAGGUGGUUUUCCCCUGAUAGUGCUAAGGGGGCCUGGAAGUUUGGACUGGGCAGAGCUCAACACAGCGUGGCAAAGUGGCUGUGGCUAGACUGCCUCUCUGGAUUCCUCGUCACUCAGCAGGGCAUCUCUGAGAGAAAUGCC

# Variants of: B1
# Measurement Description: self-cleavage, relative activity (ratio to wild type); higher = more cleavage; in vitro, sequencing; the parent is a self-cleaving ribozyme
Think of 1 as a floor: if self-cleavage stands on it or above, it is MET; beneath it, NOT MET.

- Variant Name: "A50C A124G"
  Qualitative Label: "MET"
- Variant Name: "C17U A42G"
  Qualitative Label: "MET"
- Variant Name: "U102A A117G"
  Qualitative Label: "MET"
- Variant Name: "U12C A59G"
  Qualitative Label: "NOT MET"
- Variant Name: "U62A C120U"
  Qualitative Label: "NOT MET"
- Variant Name: "U87A C110A"
  Qualitative Label: "NOT MET"
- Variant Name: "U20C A140G"
  Qualitative Label: "MET"
- Variant Name: "A121G G139A"
  Qualitative Label: "MET"
- Variant Name: "U20G U119C"
  Qualitative Label: "MET"
- Variant Name: "U45C G60U"
  Qualitative Label: "NOT MET"
